Recorded Metric: Ki (nM)
Dear colleague, please return just the value in nM, with no unit written.

Q: Provide the reported Ki (system: Botulinum neurotoxin type A (Clostridium botulinum, UniProt P0DPI0)) for `N=C(N)c1ccc(-c2ccc(-c3ccc(C(=N)N)cc3)s2)cc1`
Sequence (P0DPI0 2-448 limits assumed): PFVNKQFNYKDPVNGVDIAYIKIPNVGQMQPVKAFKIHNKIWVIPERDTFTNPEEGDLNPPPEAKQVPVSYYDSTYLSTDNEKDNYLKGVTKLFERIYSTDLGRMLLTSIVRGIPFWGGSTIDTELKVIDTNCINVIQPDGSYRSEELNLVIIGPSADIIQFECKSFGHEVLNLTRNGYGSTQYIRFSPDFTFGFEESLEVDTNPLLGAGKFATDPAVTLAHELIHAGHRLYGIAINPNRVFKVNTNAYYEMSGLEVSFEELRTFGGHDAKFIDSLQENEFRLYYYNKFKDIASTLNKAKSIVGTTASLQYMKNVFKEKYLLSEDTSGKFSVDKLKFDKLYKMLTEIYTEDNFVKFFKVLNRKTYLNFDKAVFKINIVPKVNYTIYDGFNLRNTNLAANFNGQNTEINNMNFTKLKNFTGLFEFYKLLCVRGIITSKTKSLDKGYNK
Ans: 10900

Q: Provide the reported Ki (system: Botulinum neurotoxin type A (Clostridium botulinum, UniProt P0DPI0)) for `Clc1ccc2c(NCCCCCNCc3ccc(-c4ccc(-c5ccc(CNCCCCCNc6ccnc7cc(Cl)ccc67)cc5)s4)cc3)ccnc2c1`
Ans: 889

Q: Provide the reported Ki (system: Botulinum neurotoxin type A (Clostridium botulinum, UniProt P0DPI0)) for `Clc1ccc2c(NCCCCNCc3ccc(-c4ccc(-c5ccc(CNCCCCNc6ccnc7cc(Cl)ccc67)cc5)s4)cc3)ccnc2c1`
Ans: 535

Q: Provide the reported Ki (system: Botulinum neurotoxin type A (Clostridium botulinum, UniProt P0DPI0)) for `Clc1ccc2c(NCCNCc3ccc(-c4ccc(-c5ccc(CNCCNc6ccnc7cc(Cl)ccc67)cc5)s4)cc3)ccnc2c1`
Ans: 882
